System: NCI-H226 lung
Test: NCI-60 one-dose screen, 48 h
Conditions: 10 µM unless noted
The panel holds about 83,000 compounds, 20% with a hit somewhere; the sample as a whole holds those more often. Calls of active or inactive are those of the source. The calls were made as follows: active = growth percent below 10; inactive = the rest.
Please answer using one outcome listed in active, inactive

Name the outcome recorded for COc1cccc(-c2nn(-c3ccccc3)cc2-c2ccnc(NCCNS(=O)(=O)c3ccc(Cl)cc3)c2)c1 in the assay.
inactive

What did this assay record as the result for O=P(O)(c1ccccc1)c1ccccc1I ?
inactive

Kindly provide the recorded test outcome for the following compound: COc1cc2nc(Cl)nc(Nc3cccc(C(=O)/C=C/c4ccc(Br)cc4)c3)c2cc1OC
inactive

I would be grateful if you could indicate the recorded call for C=C(C)[C@@H]1CC[C@]2(C(=O)O)CC[C@]3(C)[C@H](CC[C@@H]4[C@@]5(C)C/C(=C/c6ccc(OC)cc6)C(=O)C(C)(C)[C@@H]5CC[C@]43C)[C@@H]12 .
inactive

Per the records of this test, what outcome belongs to O=C1NC(=Nc2ccc(S(=O)(=O)Nc3nccs3)cc2)S/C1=C\c1coc2ccccc2c1=O ?
inactive

Test call for this compound, please: Cn1c(/C(C#N)=C/c2ccc3ccccc3c2)cc2ccccc21
inactive

Record request — test call for CN(C)c1cccc2[nH]c(-c3[nH]ncc3Nc3ccnc(N)n3)nc12
active

So what was the verdict on C=C1C(=O)O[C@H]2[C@H]1CC/C(COC(=O)N[C@H](Cc1c[nH]c3ccccc13)C(=O)OC)=C\CC[C@@]1(C)O[C@@H]21 in this test?
inactive

Status in this test for Cc1cc(C)nc(NC(N)=NCCc2ccccc2)n1 ?
inactive

Which outcome was entered for the compound C/C(=N\NC(=O)C(C)SC(C)C(=O)N/N=C(\C)c1cccnc1)c1cccnc1 (configuration not stated) in this test?
inactive

What call does the record list for COc1cc(-c2cc3ncccc3c3nc(N)c4cccnc4c23)cc(OC)c1OC ?
inactive

Assay outcome for COc1ccc(NC(=S)N/N=C/c2ccccc2SSCCC(=O)OC[C@H]2O[C@H](O)[C@H](O)[C@@H](O)[C@@H]2O)cc1 : what was it?
inactive

Hi, sorry to bother you, what did the test record for CCCCCCCCNc1cccc2c1C(=O)c1ccccc1C2=O ?
inactive

Which outcome was assigned to CCN(CC)c1ccc(/C=C/c2cc(C)c3ccccc3n2)cc1 in this test?
inactive

Called result for NCCn1cc(-c2nc(-c3c[nH]c4ncccc34)cs2)c2ccccc21
inactive

Look up the recorded call for COc1ccc2c(c1)c(-c1nc(-c3c[nH]c4ncccc34)cs1)cn2CCCN1CCCCC1 in this test.
inactive

Call for entry COc1cc(-c2nc(-c3ccccc3)c(-c3ccccc3)[nH]2)cc(OC)c1O :
inactive

// outcome(item) with item = CC(C)/C=C/CC[C@](C)(O)[C@H]1CC[C@]2(C)[C@@H]1CC[C@@H]1[C@@]3(C)C/C(=C/c4cccc(C(F)(F)F)c4)C(=O)C(C)(C)[C@@H]3CC[C@]12C
inactive

Kindly provide the recorded test outcome for the following compound: Cc1oc(-c2ccccc2Cl)cc1C(=O)Nc1ccc(S(N)(=O)=O)cc1
inactive

For this compound, state the assay outcome: Cc1cc(Cl)nc(N(CCNc2ccnc3cc(Cl)ccc23)Cc2ccco2)n1
inactive

Lab log entry: OCCNc1nc(Nc2ccc(Cl)c(Cl)c2)nc2ccccc12 — outcome as called in the assay?
inactive

Please state the recorded outcome for this compound: C#Cc1cccc(NC(=O)C2CCCN(C(=O)CCl)C2)c1 (configuration not stated)
active

GET /call?item= CC(=O)OC[C@]12CC[C@@H](/C(C)=N/O)[C@@H]1[C@H]1CC[C@@H]3[C@@]4(C)CCCNC(C)(C)[C@@H]4CC[C@@]3(C)[C@]1(C)CC2 returns the recorded outcome of this test.
inactive

For Fc1ccc(Nc2ccc3c(OCCCN4CCOCC4)cccc3n2)cc1F , which call appears in the assay record?
inactive

I would be grateful if you could indicate the recorded call for c1ccc2[nH]c(-c3ccc(Nc4nc(N5CCCCC5)nc(N5CCOCC5)n4)cc3)nc2c1 .
inactive

Outcome logged for COC(=O)[C@@H]1[C@H]2C[C@H]3c4[nH]c5cc(OC)ccc5c4CCN3C[C@@H]2C[C@H](OC(=O)/C=C/c2ccnc(OC)c2)[C@H]1OC in this assay:
inactive

Each compound tested received a call. Report the one for COc1cc(OC)c2c(c1)c1nc3cc(C)c(C)cc3nc1n2CCN(C)C .
inactive

What did this assay record as the result for c1ccc(CN2C(c3ccccc3)=Nc3ccccc3C2c2c[nH]c3ccccc23)cc1 (configuration not stated) ?
inactive

What call does the record list for COc1ccc(O)c(-c2cc(-c3ccc(Cl)cc3)c(C#N)c(=O)[nH]2)c1 ?
inactive

What did the test return for Cn1cc(-c2csc(-c3cn(CCNC(=O)OC(C)(C)C)c4ccc(F)cc34)n2)c2cccnc21 ?
inactive

Outcome? COc1ccc(/C=C(\C#N)c2cc3ccccc3n2S(C)(=O)=O)cc1
inactive

GET /call?item= C[C@H]1OC(=O)/C=C/[C@@H](O)[C@@H](O)CCCCCCCC[C@@H]1O returns the recorded outcome of this test.
inactive

How did this test come out for CC(=O)c1c(C)[nH]c(-c2nc3ccc(N4CCN(C)CC4)cc3[nH]2)c1-c1ccc2c(c1)OCCO2 ?
inactive

Hi team, can someone confirm the assay call for CCN(CC)C(=O)CCCCCn1c2ccccc2c2c3c(c4c5ccccc5[nH]c4c21)C(=O)N(O)C3=O ?
inactive

Please indicate how the test categorized COC(c1ccccc1)(c1ccccc1)c1ccccc1 .
inactive

Kindly provide the recorded test outcome for the following compound: Cc1cc(Cl)nc(N(CCCNc2ccnc3cc(Cl)ccc23)Cc2ccco2)n1
inactive

Hi, sorry to bother you, what did the test record for Cc1ccc(-c2ccc(/C=C(\C#N)c3nc(-c4ccco4)cs3)o2)cc1 ?
inactive
